test.name: solubility studies with docetaxel in solvents/excipients
protocol.conditions: glycofurol, organic solvent or mixture
reported.property: solubility

1) CC(=O)O[C@@]12CO[C@@H]1C[C@H](O)[C@@]1(C)C(=O)[C@H](O)C3=C(C)[C@@H](OC(=O)[C@H](O)[C@@H](NC(=O)OC(C)(C)C)c4ccccc4)C[C@@](O)([C@@H](OC(=O)c4ccccc4)[C@H]21)C3(C)C [docetaxel, trihydrate]; ~200 mg/mL
